System: biotinyl-Ile-oxazolone
PROCEDURE_SUMMARY: self-aminoacylation, catalytic enhancement (BIO) (fold over background); higher = more active; k-Seq, kA / k0A0; sequences stand for … in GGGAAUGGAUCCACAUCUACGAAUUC…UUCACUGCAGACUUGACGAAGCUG
This sample holds only a part of the variants without activity.
ASSAY_ENDPOINT: self-aminoacylation
Give bare numbers.

Check out these entries, answers already filled in.
# CHAIN_SEQUENCE, self-aminoacylation
records = [
    ("AAGUAUGCUAAUAGACGCAAG [Fam3.1 aminoacylation ribozyme variant]", 0.823),
    ("AUUCAACAAGGUCAUCGGGUG [Fam2.2 aminoacylation ribozyme variant]", 4.09),
    ("CUACUUCAAACAAUCGGGCCG [Fam1A.1 aminoacylation ribozyme variant]", 1.53),
    ("CUACUUCAAACAAGCGGCCUG [Fam1A.1 aminoacylation ribozyme variant]", 2.41),
    ("AUUACCUUGGUCAUCGAUUGA [Fam2.1 aminoacylation ribozyme variant]", 0.907),
]

Respectfully, I request self-aminoacylation for each entry included below.
1. CCACACGUCAACCAAUCGGUC [Fam1B.1 aminoacylation ribozyme variant]
2. AAGAUUGCUAAUAGUCGCAAU [Fam3.1 aminoacylation ribozyme variant]
3. AAGUUGGCUAAUCGUCGCAAG [Fam3.1 aminoacylation ribozyme variant]
4. CCACACUUCAAGCAUUCGAUC [Fam1B.1 aminoacylation ribozyme variant]
5. AAGUCUGGUAAUAGUCGCAAG [Fam3.1 aminoacylation ribozyme variant]
6. AAGUUUGGUAAUAGUCCCAAG [Fam3.1 aminoacylation ribozyme variant]
7. AAGUUGGCUUAUAGUCGCAAG [Fam3.1 aminoacylation ribozyme variant]

Output:
1.09
1.54
1.76
0.664
1.17
1.32
1.59

Lab book: self-aminoacylation of CUACUUUAAACAGUCGGUCUG [Fam1A.1 aminoacylation ribozyme variant] noted as 0.837

====

Test system: biotinyl-Phe-oxazolone
PROCEDURE_SUMMARY: self-aminoacylation, catalytic enhancement (BFO) (fold over background); higher = more active; k-Seq, kA / k0A0; sequences stand for … in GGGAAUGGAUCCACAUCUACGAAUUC…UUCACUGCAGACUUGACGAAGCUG
This sample holds only a part of the variants without activity.
ASSAY_ENDPOINT: self-aminoacylation
One number for each entry.

Check out these entries, answers already filled in.
# CHAIN_SEQUENCE, MEASURED_NUMBER
rows = [
    ("AUUCACCUAGGUCUUCUGGUG [Fam2.2 aminoacylation ribozyme variant]", 58.1),
    ("CUCCUUCAAACAUUCGGUCUG [Fam1A.1 aminoacylation ribozyme variant]", 3.15),
    ("UUUACCCUGGUCAUCGAGUAA [Fam2.1 aminoacylation ribozyme variant]", 30.5),
    ("CUACUUCAAACGAUCGAUCUG [Fam1A.1 aminoacylation ribozyme variant]", 0.425),
    ("CCAUACUUCAAGGAAUCGGUC [Fam1B.1 aminoacylation ribozyme variant]", 3.91),
    ("AUUACCGUGGUCACCGAGUGA [Fam2.1 aminoacylation ribozyme variant]", 9.08),
    ("CCACACUUCAAGCACUCGGGC [Fam1B.1 aminoacylation ribozyme variant]", 13.2),
    ("AAUCACCUAGGUCAUCCGGUG [Fam2.2 aminoacylation ribozyme variant]", 50),
]

Respectfully, I request self-aminoacylation for each entry included below.
1. AAGUUUGCUAAUAGUCGCUAC [Fam3.1 aminoacylation ribozyme variant]
2. CUACUAGAAACAAUCGGUCUG [Fam1A.1 aminoacylation ribozyme variant]
3. CUGCUUGAAACAAUCGGUCUG [Fam1A.1 aminoacylation ribozyme variant]

Output:
0.82
0.401
0.928

Respectfully, I request self-aminoacylation for each entry included below.
1. AUGCACCUAGGUGAUCGGGUG [Fam2.2 aminoacylation ribozyme variant]
2. AUGACCUUGGUCAUCGAGUGA [Fam2.1 aminoacylation ribozyme variant]
3. AUUCACCUGGGUCAUCGGGAG [Fam2.2 aminoacylation ribozyme variant]
4. AUUCCCCUAGGUCAUCGGGGG [Fam2.2 aminoacylation ribozyme variant]
5. UUACUUCAAACAAUCGGUCUA [Fam1A.1 aminoacylation ribozyme variant]

Output:
1: 30.7; 2: 22.3; 3: 7.65; 4: 51.6; 5: 6.02

Respectfully, I request self-aminoacylation for each entry included below.
1. CCACCCUUCAAUCAAUCGGUC [Fam1B.1 aminoacylation ribozyme variant]
2. AUUACCCUGGUCAGCGAGUGG [Fam2.1 aminoacylation ribozyme variant]
3. AUUACCCAAGUCAUCGAGUGA [Fam2.1 aminoacylation ribozyme variant]
4. CUAGUUCAAACAAUCGGUUUG [Fam1A.1 aminoacylation ribozyme variant]
5. AUUACCCGUGUCAUCGAGUGA [Fam2.1 aminoacylation ribozyme variant]
6. AUUACCCUGUUCAUUGAGUGA [Fam2.1 aminoacylation ribozyme variant]

Output:
1: 28.6; 2: 2.26; 3: 42.4; 4: 4.59; 5: 38.3; 6: 83.6

Respectfully, I request self-aminoacylation for each entry included below.
1. AUUACGCUGAUCAUCGAGUGA [Fam2.1 aminoacylation ribozyme variant]
2. UUACUUCAAAUAAUCGGUCUG [Fam1A.1 aminoacylation ribozyme variant]

Output:
[15, 10.3]

# credit: the supplement of paper PMC9233669
